Entries annotated with measured selectivity ratio
Method Summary: Selectivity index, ratio of CC50 for human CEM cells to EC50 for HIV-2 ROD infected in thymidine kinase-deficient human CEM cells
Format: toxicity
Test Context: read-out: Ratio CC50/EC50
No unit in the answer, only the number.

Answered examples (3):
Compound	Reading
CCCCCCCCCCCCCCCCCCOP(=O)(OCC(CC)CCCC)OP(=O)(O)OP(=O)(O)OC[C@@H]1C=C[C@H](n2cc(C)c(=O)[nH]c2=O)O1.N.N (stereo partly specified)	6800
CCCCCCCCCCCCP(=O)(OCc1ccc(OC(=O)CCCC)cc1)OP(=O)(O)OC[C@@H]1C=C[C@H](n2cc(C)c(=O)[nH]c2=O)O1.N (stereo partly specified)	88
CCCCCCCCCCCCCCCCCCOP(=O)(OC)OP(=O)(O)OP(=O)(O)OC[C@@H]1C=C[C@H](n2cc(C)c(=O)[nH]c2=O)O1.N.N (stereo partly specified)	2270

As a next step, examine the compound that follows.
Input line: What measured selectivity ratio goes with CCCCCCCCCCCC(=O)Oc1ccc(COP(=O)(OCCCC)OP(=O)(O)OC[C@@H]2C=C[C@H](n3cc(C)c(=O)[nH]c3=O)O2)cc1.N (stereo partly specified) ?
Output line: 111

----------
Entries annotated with measured CC50
Method Summary: Cytotoxicity against human CEM cells assessed as reduction in cell viability incubated for 4 to 5 days by light microscopic analysis
Format: toxicity, cell-based
Test Context: CEM cells (CCRF-CEM), time 4-5 day
Answer in µM, number only, no unit symbol.

Answered examples (6):
Compound	CC50 [µM]
CCCCCCCCCCCCCCCCCCP(=O)(OCCCC)OP(=O)(O)OP(=O)(O)OC[C@@H]1C=C[C@H](n2cc(C)c(=O)[nH]c2=O)O1.N.N (stereo partly specified)	33
CCCCCCCCCCCC(=O)Oc1ccc(COP(=O)(OCCCC)OP(=O)(O)OC[C@@H]2C=C[C@H](n3cc(C)c(=O)[nH]c3=O)O2)cc1.N (stereo partly specified)	83.1
CCCCCCCCCCCCCCCCCCP(=O)(OC)OP(=O)(O)OP(=O)(O)OC[C@@H]1C=C[C@H](n2cc(C)c(=O)[nH]c2=O)O1.N.N (stereo partly specified)	40
CCCCCCCCCCCCCCCCCCP(=O)(OCCCC)OP(=O)(O)OC[C@@H]1C=C[C@H](n2cc(C)c(=O)[nH]c2=O)O1.N (stereo partly specified)	42.6
CCCCCCCCCCCCP(=O)(OCc1ccc(OC(=O)CCCC)cc1)OP(=O)(O)OC[C@@H]1C=C[C@H](n2cc(C)c(=O)[nH]c2=O)O1.N (stereo partly specified)	66.7
CCCCCCCCCCCCCCCCCCP(=O)(OCCCCCCCCCCCC)OP(=O)(O)OP(=O)(O)OC[C@@H]1C=C[C@H](n2cc(C)c(=O)[nH]c2=O)O1.N.N (stereo partly specified)	50

Input line: What measured CC50 goes with CCCCCCCCCCCCP(=O)(OCc1ccc(OC(=O)CCCCCCCCCCC)cc1)OP(=O)(O)OC[C@@H]1C=C[C@H](n2cc(C)c(=O)[nH]c2=O)O1.N (stereo partly specified) ?
Output line: 41.1

----------
Method Summary: Prodrug conversion in human CEM/0 cell extract assessed as ((2S,5R)-5-(5-methyl-2,4-dioxo-3,4-dihydropyrimidin-1(2H)-yl)-2,5-dihydrofuran-2-yl)methyl tri-hydrogen diphosphate formation by HPLC analysis
Assay type: ADME
Test Context: ccrf-cem

Compound	Drug metabolism
CCCCCCCCCCCCP(=O)(O)OP(=O)(O)OC[C@@H]1C=C[C@H](n2cc(C)c(=O)[nH]c2=O)O1.N.N	Metabolite_Notdetected
CCCCCCCCCCCCCCCCCCOP(=O)(OCCCCCCCC)OP(=O)(O)OC[C@@H]1C=C[C@H](n2cc(C)c(=O)[nH]c2=O)O1.N (stereo partly drawn)	Metabolite_Notdetected
